Test Summary: Serum stability in mouse serum at 37° C.
Assay type: in vitro ADME
Condition Summary: mouse serum, 37° C., mono-exponential fit
Endpoint: Serum τ1/2 (h) mouse
Number only, in h; omit the unit.

molecule="A54P/C124A: RLuc mutant A54P/C124A (protein) MASKVYDPEQRKRMITGPQWWARCKQMNVLDSFINYYDSEKHAENAVIFLHGNPASSYLWRHVVPHIEPVARCIIPDLIGMGKSGKSGNGSYRLLDHYKYLTAWFELLNLPKKIIFVGHDWGAALAFHYSYEHQDKIKAIVHAESVVDVIESWDEWPDIEEDIALIKSEEGEKMVLENNFFVETMLPSKIMRKLEPEEFAAYLEPFKEKGEVRRPTLSWPREIPLVKGGKPDVVQIVRNYNAYLRASDDLPKMFIESDPGFFSNAIVEGAKKFPNTEFVKVKGLHFSQEDAPDEMGKYIKSFVERVLKNEQ" reported_result=14
molecule="C124A/S257G: RLuc mutant C124A/S257G (protein) MASKVYDPEQRKRMITGPQWWARCKQMNVLDSFINYYDSEKHAENAVIFLHGNAASSYLWRHVVPHIEPVARCIIPDLIGMGKSGKSGNGSYRLLDHYKYLTAWFELLNLPKKIIFVGHDWGAALAFHYSYEHQDKIKAIVHAESVVDVIESWDEWPDIEEDIALIKSEEGEKMVLENNFFVETMLPSKIMRKLEPEEFAAYLEPFKEKGEVRRPTLSWPREIPLVKGGKPDVVQIVRNYNAYLRASDDLPKMFIEGDPGFFSNAIVEGAKKFPNTEFVKVKGLHFSQEDAPDEMGKYIKSFVERVLKNEQ" reported_result=1.3

// switching to the query molecule
The value of Serum τ1/2 (h) mouse measured for the molecule C124A/L203R: RLuc mutant C124A/L203R (protein) MASKVYDPEQRKRMITGPQWWARCKQMNVLDSFINYYDSEKHAENAVIFLHGNAASSYLWRHVVPHIEPVARCIIPDLIGMGKSGKSGNGSYRLLDHYKYLTAWFELLNLPKKIIFVGHDWGAALAFHYSYEHQDKIKAIVHAESVVDVIESWDEWPDIEEDIALIKSEEGEKMVLENNFFVETMLPSKIMRKLEPEEFAAYREPFKEKGEVRRPTLSWPREIPLVKGGKPDVVQIVRNYNAYLRASDDLPKMFIESDPGFFSNAIVEGAKKFPNTEFVKVKGLHFSQEDAPDEMGKYIKSFVERVLKNEQ turned out to be 2.7
